# Target Under Test: Melatonin receptor type 1A (Homo sapiens, UniProt P48039)
# Sequence (P48039 whole entry): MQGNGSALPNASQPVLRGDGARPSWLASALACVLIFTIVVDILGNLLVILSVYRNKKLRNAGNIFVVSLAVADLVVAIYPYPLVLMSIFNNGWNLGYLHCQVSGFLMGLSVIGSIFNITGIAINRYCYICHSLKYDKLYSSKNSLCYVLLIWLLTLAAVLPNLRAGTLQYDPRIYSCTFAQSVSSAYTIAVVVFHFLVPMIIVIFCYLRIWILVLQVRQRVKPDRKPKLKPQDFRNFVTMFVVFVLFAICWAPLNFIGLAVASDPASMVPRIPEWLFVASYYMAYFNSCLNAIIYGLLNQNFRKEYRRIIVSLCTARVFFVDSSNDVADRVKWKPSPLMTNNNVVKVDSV
# Assay Comment: Displacement of 2[125I]iodomelatonin from human recombinant MT1 receptor expressed in NIH3T3 cells
Readout Name: Ki (nM)

In the examples that follow, each entry is paired with its recorded Ki.
1) CCC(=O)NCCc1cn(C)c2c(-c3ccccc3)cc(OC)cc12; 5890
2) COc1cc(-c2ccccc2)c2c(c1)c(CCNC(C)=O)cn2C; 1260
3) CCC(=O)NCCc1cn(C)c2c(Br)cc(OC)cc12; 14.1

(I) CCCC(=O)NCCc1c[nH]c2c(Br)cc(OC)cc12
(II) CCC(=O)NCCc1c[nH]c2c(C)cc(OC)cc12
Qu. Name the one with the greater Ki value, either I or II as given. Refer to your chosen item by its label in the answer.
Ans. I
(I: 5.13 nM, II: 1.78 nM)

(I) CCC(=O)NCCc1c[nH]c2c(Br)cc(OC)cc12
(II) CCCC(=O)NCCc1cn(C)c2c(C)cc(OC)cc12
(III) CCCC(=O)NCCc1c[nH]c2c(-c3ccccc3)cc(OC)cc12
Qu. List these items ordered by Ki, big to small. Rank the items, then write their labels in that order.
Ans. III, II, I
(III: 955 nM, II: 19.5 nM, I: 4.17 nM)

(1) COc1cc(Br)c2[nH]cc(CCNC(C)=O)c2c1
(2) CCC(=O)NCCc1c[nH]c2c(-c3ccccc3)cc(OC)cc12
Qu. Just curious, which one has the larger Ki reading, 1 or 2 ? Return value: the label identifying the chosen record.
Ans. 2
(2: 617 nM, 1: 3.55 nM)

(1) COc1cc(C)c2[nH]cc(CCNC(C)=O)c2c1
(2) COc1cc(-c2ccccc2)c2[nH]cc(CCNC(C)=O)c2c1
Qu. Short answer wanted: higher Ki, 1 or 2 ? Your answer should be the label attached to the chosen record.
Ans. 2

* * *

# Target Under Test: Melatonin receptor type 1B (Homo sapiens, UniProt P49286)
# Sequence (P49286 whole entry): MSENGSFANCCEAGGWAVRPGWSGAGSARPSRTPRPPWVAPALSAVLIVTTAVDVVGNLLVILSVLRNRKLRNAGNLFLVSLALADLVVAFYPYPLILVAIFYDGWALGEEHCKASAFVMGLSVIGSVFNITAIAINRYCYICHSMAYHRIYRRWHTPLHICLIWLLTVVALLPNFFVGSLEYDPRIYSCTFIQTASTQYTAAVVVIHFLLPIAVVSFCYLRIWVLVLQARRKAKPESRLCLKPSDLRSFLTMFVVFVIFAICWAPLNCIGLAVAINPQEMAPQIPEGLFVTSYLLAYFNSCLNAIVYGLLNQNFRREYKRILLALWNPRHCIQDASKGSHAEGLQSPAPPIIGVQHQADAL
# Assay Comment: Displacement of 2[125I]iodomelatonin from human recombinant MT2 receptor expressed in NIH3T3 cells
Readout Name: Ki (nM)

Examples with answers:
1. COc1cc(C)c2c(c1)c(CCNC(C)=O)cn2C; 1.55
2. COc1cc(Br)c2[nH]cc(CCNC(C)=O)c2c1; 0.676

(A) CCCC(=O)NCCc1c[nH]c2c(C)cc(OC)cc12
(B) CCC(=O)NCCc1cn(C)c2c(C)cc(OC)cc12
(C) COc1cc(C)c2[nH]cc(CCNC(C)=O)c2c1
Qu. Exam item: list the entries in increasing order of Ki. Give the labels in the order requested.
Ans. A, C, B

(P) CCCC(=O)NCCc1cn(C)c2c(-c3ccccc3)cc(OC)cc12
(Q) CCC(=O)NCCc1cn(C)c2c(Br)cc(OC)cc12
(R) CCC(=O)NCCc1c[nH]c2c(C)cc(OC)cc12
(S) COc1cc(-c2ccccc2)c2c(c1)c(CCNC(C)=O)cn2C
(T) CCC(=O)NCCc1c[nH]c2c(Br)cc(OC)cc12
Qu. # desc sort on Ki across 5 compounds Lab note: record answer as labels in requested order.
Ans. P, S, Q, R, T
(P: 851 nM, S: 457 nM, Q: 2.29 nM, R: 1.1 nM, T: 0.537 nM)

(a) CCC(=O)NCCc1c[nH]c2c(-c3ccccc3)cc(OC)cc12
(b) CCCC(=O)NCCc1cn(C)c2c(Br)cc(OC)cc12
(c) COc1cc(-c2ccccc2)c2[nH]cc(CCNC(C)=O)c2c1
Qu. Please put the entries in order of rising Ki. Submit the labels in the order that the ranking request calls for.
Ans. b, a, c
(b: 2.14 nM, a: 617 nM, c: 3020 nM)

(P) CCCC(=O)NCCc1c[nH]c2c(-c3ccccc3)cc(OC)cc12
(Q) COc1cc(Br)c2c(c1)c(CCNC(C)=O)cn2C
(R) CCCC(=O)NCCc1c[nH]c2c(Br)cc(OC)cc12
Qu. List these items ordered by Ki, big to small. Answer by listing the labels in the order asked for.
Ans. P, Q, R
(P: 871 nM, Q: 1.32 nM, R: 0.355 nM)

(A) CCCC(=O)NCCc1cn(C)c2c(C)cc(OC)cc12
(B) CCC(=O)NCCc1cn(C)c2c(-c3ccccc3)cc(OC)cc12
Qu. In terms of reported Ki, does A or B have the smaller number? State your choice using its label.
Ans. A
(A: 1.35 nM, B: 676 nM)

* * *

# Target Under Test: Melatonin receptor type 1C (Xenopus laevis, UniProt P49219)
# Sequence (P49219 whole entry): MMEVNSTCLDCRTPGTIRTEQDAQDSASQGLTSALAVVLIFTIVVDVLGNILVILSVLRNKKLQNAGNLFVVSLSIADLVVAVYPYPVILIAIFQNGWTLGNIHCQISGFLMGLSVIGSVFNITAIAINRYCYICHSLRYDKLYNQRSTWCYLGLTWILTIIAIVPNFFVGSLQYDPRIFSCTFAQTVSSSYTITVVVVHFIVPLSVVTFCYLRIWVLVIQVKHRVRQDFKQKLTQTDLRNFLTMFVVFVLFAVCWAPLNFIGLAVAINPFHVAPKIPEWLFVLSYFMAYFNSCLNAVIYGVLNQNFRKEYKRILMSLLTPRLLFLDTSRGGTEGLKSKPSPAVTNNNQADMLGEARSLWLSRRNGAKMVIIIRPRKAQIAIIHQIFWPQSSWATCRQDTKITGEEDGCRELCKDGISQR
# Assay Comment: Effect on pigment aggregation in Xenopus laevis melanophores
pEC50: −log10 of the molar value.
Readout Name: pEC50

Below: 2 compounds and their reported pEC50.
1) CCCC(=O)NCCc1c[nH]c2c(C)cc(OC)cc12; 7.90
2) COc1ccc2[nH]cc(CCNC(C)=O)c2c1 [MELATONIN]; 10.10

(1) COc1cc(-c2ccccc2)c2c(c1)c(CCNC(C)=O)cn2C
(2) CCCC(=O)NCCc1c[nH]c2c(-c3ccccc3)cc(OC)cc12
Qu. Smaller pEC50 value? Options are 1 and 2 Provide the label of your selected option as the answer.
Ans. 1

* * *

# Target Under Test: Melatonin receptor type 1C (Xenopus laevis)
# Assay Comment: Effect on pigment aggregation in Xenopus laevis melanophores
pEC50: −log10 of the molar value.
Readout Name: pEC50

Solved cases (4 shown):
1) CCC(=O)NCCc1cn(C)c2c(C)cc(OC)cc12; 7.80
2) COc1cc(C)c2c(c1)c(CCNC(C)=O)cn2C; 8.01
3) COc1cc(Br)c2[nH]cc(CCNC(C)=O)c2c1; 8.48
4) CCCC(=O)NCCc1c[nH]c2c(Br)cc(OC)cc12; 8.46

(P) CCC(=O)NCCc1c[nH]c2c(Br)cc(OC)cc12
(Q) COc1cc(Br)c2c(c1)c(CCNC(C)=O)cn2C
Qu. Param pair: P , Q . Output: the one whose pEC50 is numerically greater. Pick one; state its label.
Ans. P

(1) CCC(=O)NCCc1c[nH]c2c(-c3ccccc3)cc(OC)cc12
(2) CCCC(=O)NCCc1cn(C)c2c(Br)cc(OC)cc12
(3) CCC(=O)NCCc1c[nH]c2c(C)cc(OC)cc12
Qu. Hey, quick one: sort these by pEC50, largest value first please. Labels, requested order.
Ans. 3, 2, 1
(3: 7.50, 2: 7.28, 1: 6.81)

(I) COc1cc(-c2ccccc2)c2[nH]cc(CCNC(C)=O)c2c1
(II) CCC(=O)NCCc1cn(C)c2c(Br)cc(OC)cc12
(III) CCCC(=O)NCCc1cn(C)c2c(C)cc(OC)cc12
Qu. Place the items in sequence of falling pEC50. Show the ranking through the labels, in the order asked for.
Ans. III, II, I
(III: 7.78, II: 7.19, I: 6.92)
